Recorded OD450 at 0.11 nM by entry
system: biotinylated labeled human GPC3 protein (produced in-house) (human, UniProt P51654 25-559, limits assumed, biotinylated (Dojindo, Cat. No. LK03); sites not stated)
measurement protocol: ELISA, biotinylated human GPC3 protein
Write the value in OD450 as a bare number.

See these solved cases before continuing.
{"binder": "hAb006LH2L1b (antibody, human IgG1, V domains shown, Humanized F3.38.7; VH H2 + VL L1b; expressed as human IgG1) VH: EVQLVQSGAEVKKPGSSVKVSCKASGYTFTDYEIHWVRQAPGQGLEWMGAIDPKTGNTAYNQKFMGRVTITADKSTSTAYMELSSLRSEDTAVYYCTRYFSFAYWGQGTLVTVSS VL: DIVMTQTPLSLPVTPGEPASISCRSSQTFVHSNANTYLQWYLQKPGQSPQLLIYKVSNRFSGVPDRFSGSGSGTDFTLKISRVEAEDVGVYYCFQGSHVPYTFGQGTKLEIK", "OD450 at 0.11 nM [OD450]": 1.91}
{"binder": "hAb007LH1L1 (antibody, human IgG1, V domains shown, Humanized F3.81.19; VH H1 + VL L1; expressed as human IgG1) VH: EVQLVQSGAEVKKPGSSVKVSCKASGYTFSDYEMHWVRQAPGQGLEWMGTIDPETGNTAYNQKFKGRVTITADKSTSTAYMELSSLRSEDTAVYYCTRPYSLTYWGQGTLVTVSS VL: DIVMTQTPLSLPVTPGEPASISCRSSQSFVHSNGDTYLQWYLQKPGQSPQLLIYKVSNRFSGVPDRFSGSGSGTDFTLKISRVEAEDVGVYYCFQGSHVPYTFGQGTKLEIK", "OD450 at 0.11 nM [OD450]": 1.36}
{"binder": "hAb003LH3L1a (antibody, human IgG1, V domains shown, Humanized F2.154.1; VH H3 + VL L1a; expressed as human IgG1) VH: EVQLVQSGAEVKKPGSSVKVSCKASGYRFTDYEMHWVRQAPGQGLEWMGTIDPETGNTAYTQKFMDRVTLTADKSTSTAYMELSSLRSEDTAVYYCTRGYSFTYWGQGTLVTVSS VL: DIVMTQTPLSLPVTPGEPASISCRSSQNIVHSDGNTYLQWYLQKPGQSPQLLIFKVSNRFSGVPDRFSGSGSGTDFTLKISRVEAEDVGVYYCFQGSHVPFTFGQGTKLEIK", "OD450 at 0.11 nM [OD450]": 1.3}

Request: Recall and state the measured OD450 at 0.11 nM for hAb005LH1L1a (antibody, human IgG1, V domains shown, Humanized F3.54.12; VH H1 + VL L1a; expressed as human IgG1) VH: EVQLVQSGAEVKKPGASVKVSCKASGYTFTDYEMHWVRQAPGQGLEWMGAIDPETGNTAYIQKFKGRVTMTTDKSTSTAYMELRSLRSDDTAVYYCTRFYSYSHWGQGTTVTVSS VL: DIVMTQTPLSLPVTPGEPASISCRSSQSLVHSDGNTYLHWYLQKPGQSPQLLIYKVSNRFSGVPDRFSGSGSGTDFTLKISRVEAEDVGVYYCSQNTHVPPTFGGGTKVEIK .
Result: 0.057

Request: Recall and state the measured OD450 at 0.11 nM for hAb007LH2L1b (antibody, human IgG1, V domains shown, Humanized F3.81.19; VH H2 + VL L1b; expressed as human IgG1) VH: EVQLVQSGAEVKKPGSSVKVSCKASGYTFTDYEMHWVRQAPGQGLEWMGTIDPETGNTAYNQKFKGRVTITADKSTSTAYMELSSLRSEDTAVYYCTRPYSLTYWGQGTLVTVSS VL: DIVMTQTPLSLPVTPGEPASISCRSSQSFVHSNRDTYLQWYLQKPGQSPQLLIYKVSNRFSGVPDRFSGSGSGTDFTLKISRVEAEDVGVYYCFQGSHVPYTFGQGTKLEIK .
Result: 0.924

Request: Recall and state the measured OD450 at 0.11 nM for hAb003LH2L1a (antibody, human IgG1, V domains shown, Humanized F2.154.1; VH H2 + VL L1a; expressed as human IgG1) VH: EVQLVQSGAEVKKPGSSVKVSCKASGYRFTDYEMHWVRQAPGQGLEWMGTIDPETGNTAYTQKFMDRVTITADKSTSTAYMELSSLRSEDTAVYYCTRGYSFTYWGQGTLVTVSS VL: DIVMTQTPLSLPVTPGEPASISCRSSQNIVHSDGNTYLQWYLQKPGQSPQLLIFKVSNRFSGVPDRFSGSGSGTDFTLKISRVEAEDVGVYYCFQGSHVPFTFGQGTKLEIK .
Result: 1.18

Request: Recall and state the measured OD450 at 0.11 nM for hAb007LH3L1 (antibody, human IgG1, V domains shown, Humanized F3.81.19; VH H3 + VL L1; expressed as human IgG1) VH: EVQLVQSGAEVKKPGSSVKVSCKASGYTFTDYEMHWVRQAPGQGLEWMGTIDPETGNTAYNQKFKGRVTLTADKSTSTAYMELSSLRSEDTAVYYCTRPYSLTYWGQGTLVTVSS VL: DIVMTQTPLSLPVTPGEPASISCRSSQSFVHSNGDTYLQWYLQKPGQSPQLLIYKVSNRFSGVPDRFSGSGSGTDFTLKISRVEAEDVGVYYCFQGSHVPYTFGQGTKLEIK .
Result: 0.959
